System: LG0703-F948-PDC complex spheroid viability
Protocol Summary: Anticancer human tumor LG0703-F948-PDC patient-derived lung adenocarcinoma cell line growth inhibition [RAS]
Study Conditions: curve of first compound; second compound 0.1 µM
Property: IC50 (nM)

Check out these entries, answers already filled in.
compound="CCc1c2c(nc3ccc(O)cc13)-c1cc3c(c(=O)n1C2)COC(=O)[C@]3(O)CC + C#Cc1c(F)ccc2cc(O)cc(-c3ncc4c(N5CC6CCC(C5)N6)nc(OCC56CCCN5CC(F)C6)nc4c3F)c12" unit=nM measured_number=35.9
compound="O=C(c1ccc(F)c(F)c1Nc1ccc(I)cc1F)N1CC(O)([C@@H]2CCCCN2)C1 + C=CC(=O)N1CCN(c2nc(OCC3CCCN3C)nc3c(F)c(-c4nc(N)cc(C)c4C(F)(F)F)c(Cl)cc23)C(C)C1" unit=nM measured_number=31.7
compound="CC(C)n1nc(-c2ccc3oc(N)nc3c2)c2c(N)ncnc21 + C=CC(=O)N1CCN(c2nc(OCC3CCCN3C)nc3c(F)c(-c4nc(N)cc(C)c4C(F)(F)F)c(Cl)cc23)C(C)C1" unit=nM measured_number=3.98

(P) CCc1c2c(nc3ccc(O)cc13)-c1cc3c(c(=O)n1C2)COC(=O)[C@]3(O)CC + C=CC(=O)N1CCN(c2nc(OCC3CCCN3C)nc3c(F)c(-c4nc(N)cc(C)c4C(F)(F)F)c(Cl)cc23)C(C)C1
(Q) CC(C)n1nc(-c2ccc3oc(N)nc3c2)c2c(N)ncnc21 + C#Cc1c(F)ccc2cc(O)cc(-c3ncc4c(N5CC6CCC(C5)N6)nc(OCC56CCCN5CC(F)C6)nc4c3F)c12
(R) CC(C)NCC(C(=O)N1CCN(c2ncnc3c2C(C)CC3O)CC1)c1ccc(Cl)cc1 (stereo not given) + C=CC(=O)N1CCN(c2nc(OCC3CCCN3C)nc3c(F)c(-c4nc(N)cc(C)c4C(F)(F)F)c(Cl)cc23)C(C)C1
(S) O=C(c1ccc(F)c(F)c1Nc1ccc(I)cc1F)N1CC(O)([C@@H]2CCCCN2)C1 + C#Cc1c(F)ccc2cc(O)cc(-c3ncc4c(N5CC6CCC(C5)N6)nc(OCC56CCCN5CC(F)C6)nc4c3F)c12
Problem: Ascending sort, IC50. Note for the reader: the ranking is given by listing the labels in the order requested.
Result: Q, P, S, R

* * *

System: LG0703-F948-PDC complex spheroid viability
Protocol Summary: Anticancer human tumor LG0703-F948-PDC cell line growth inhibition [RAS];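 note: spheroids exposed to agents for 7 days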
Study Conditions: curve of first compound; second compound 0.00949 µM
pIC50: −log10 of the molar value.
Property: pIC50

These recorded examples may help you get a feel for the data.
compound="Nc1ccn(C2OC(CO)C(O)C2(F)F)c(=O)n1 (centres undefined) + CCn1c(-c2cc(N3CCN(C)CC3)cnc2C(C)OC)c2c3cc(ccc31)-c1csc(n1)CC(NC(=O)C1CC1C)C(=O)N1CCCC(N1)C(=O)OCC(C)(C)C2" result="> 8.50"
compound="CCC(CC)c1cc(NC2CCC(N)C2)n2nccc2n1 (centres undefined) + CCn1c(-c2cccnc2C(C)OC)c2c3cc(ccc31)N1CCOC(CC(NC(=O)C(C(C)C)N(C)C(=O)C3(F)CCN(C(=O)C#CC(C)(C)N(C)C)CC3)C(=O)N3CCCC(N3)C(=O)OCC(C)(C)C2)C1" result=5.80
compound="CC1(C)CCC(Nc2ncc(C(F)(F)F)c(-c3c[nH]c4c(P(C)(C)=O)c(C#N)ccc34)n2)CN1 (centres undefined) + CCn1c(-c2cc(N3CCN(C)CC3)cnc2C(C)OC)c2c3cc(ccc31)-c1csc(n1)CC(NC(=O)C1CC1C)C(=O)N1CCCC(N1)C(=O)OCC(C)(C)C2" result="> 9.02"

Switching to the query record.
Problem: State the recorded pIC50 for this entry: C=CC(=O)N1CCN(c2nc(OCC3CCCN3C)nc3c(F)c(-c4nc(N)cc(C)c4C(F)(F)F)c(Cl)cc23)C(C)C1 (centres undefined) + CCn1c(-c2cc(N3CCN(C)CC3)cnc2C(C)OC)c2c3cc(ccc31)-c1csc(n1)CC(NC(=O)C1CC1C)C(=O)N1CCCC(N1)C(=O)OCC(C)(C)C2
Result: > 8.50
